Source listed as PubChem BioAssay AID2060912.

Recorded measurements of viability, T/C, one per entry
System: HUVEC/MSC spheroids viability
procedure-details: Human HUVEC/MSC cell line growth inhibition [KRAS2];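 further: percent of DMSO vehicle control luminescence so 100% = untreated viability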
condition-set: second compound 0.0316 µM; first compound 3.16 µM; active compounds read low
State just the number; it will be interpreted in %.

Past entries and their recorded results:
{"columns": ["compound", "measurement-target", "reading-unit", "viability, T/C"],
 "data": [
  ["CC(C)NCC(C(=O)N1CCN(c2ncnc3c2C(C)CC3O)CC1)c1ccc(Cl)cc1 (stereo unspecified) + CNCc1ccccc1-c1csc(C(C)Nc2nc(C)nc3cc(OC)c(OC)cc23)c1", "HUVEC/MSC spheroids viability", "%", 69],
  ["COc1cc(Nc2ncc3c(n2)-c2ccc(Cl)cc2C(c2c(F)cccc2OC)=NC3)ccc1C(=O)O + C=CC(=O)N1CCN(c2nc(=O)n(-c3c(C)ccnc3C(C)C)c3nc(-c4c(O)cccc4F)c(F)cc23)C(C)C1", "HUVEC/MSC spheroids viability", "%", 106],
  ["O=C(c1cc(Cc2n[nH]c(=O)c3ccccc23)ccc1F)N1CCN(C(=O)C2CC2)CC1 + C=CC(=O)N1CCN(c2nc(=O)n(-c3c(C)ccnc3C(C)C)c3nc(-c4c(O)cccc4F)c(F)cc23)C(C)C1", "HUVEC/MSC spheroids viability", "%", 95],
  ["CCNC(=O)CC1N=C(c2ccc(Cl)cc2)c2cc(OC)ccc2-n2c(C)nnc21 (stereo unspecified) + COc1cc2nc(C)nc(NC(C)c3cc(N)cc(C(F)(F)F)c3)c2cc1OC1CCOC1", "HUVEC/MSC spheroids viability", "%", 114],
  ["CC1(C)CCC(CN2CCN(c3ccc(C(=O)NS(=O)(=O)c4ccc(NCC5CCOCC5)c([N+](=O)[O-])c4)c(Oc4cnc5[nH]ccc5c4)c3)CC2)=C(c2ccc(Cl)cc2)C1 + C=CC(=O)N1CCN(c2nc(=O)n(-c3c(C)ccnc3C(C)C)c3nc(-c4c(O)cccc4F)c(F)cc23)C(C)C1", "HUVEC/MSC spheroids viability", "%", 75.2],
  ["Cn1nccc1Nc1nccc(-c2cc3c(s2)C(C)(C)N(CCN2CCOCC2)C3=O)n1 + CNCc1ccccc1-c1csc(C(C)Nc2nc(C)nc3cc(OC)c(OC)cc23)c1", "HUVEC/MSC spheroids viability", "%", 26.9],
  ["CCNC(=O)CC1N=C(c2ccc(Cl)cc2)c2cc(OC)ccc2-n2c(C)nnc21 (stereo unspecified) + CNCc1ccccc1-c1csc(C(C)Nc2nc(C)nc3cc(OC)c(OC)cc23)c1", "HUVEC/MSC spheroids viability", "%", 114],
  ["CC(C)NCC(C(=O)N1CCN(c2ncnc3c2C(C)CC3O)CC1)c1ccc(Cl)cc1 (stereo unspecified) + CC1OCC2(CCN(c3cnc(Sc4ccnc(N)c4Cl)c(N)n3)CC2)C1N", "HUVEC/MSC spheroids viability", "%", 56.2]
]}

[Q] Give its viability, T/C value. Item: COC(=O)c1ccc2c(C(=Nc3ccc(N(C)C(=O)CN4CCN(C)CC4)cc3)c3ccccc3)c(O)[nH]c2c1 + COc1cc2nc(C)nc(NC(C)c3cc(N)cc(C(F)(F)F)c3)c2cc1OC1CCOC1
[A] 29.7

[Q] Now try CC1(C)CCC(CN2CCN(c3ccc(C(=O)NS(=O)(=O)c4ccc(NCC5CCOCC5)c([N+](=O)[O-])c4)c(Oc4cnc5[nH]ccc5c4)c3)CC2)=C(c2ccc(Cl)cc2)C1 + CNCc1ccccc1-c1csc(C(C)Nc2nc(C)nc3cc(OC)c(OC)cc23)c1 .
[A] 67.1

[Q] Now try CC1OCC2(CCN(c3cnc(Sc4ccnc(N)c4Cl)c(N)n3)CC2)C1N (stereo unspecified) + COc1cc2nc(C)nc(NC(C)c3cc(N)cc(C(F)(F)F)c3)c2cc1OC1CCOC1 .
[A] 70.6

[Q] Now try COc1cc2nccc(Oc3ccc(NC(=O)C4(C(=O)Nc5ccc(F)cc5)CC4)cc3)c2cc1OC + CC1OCC2(CCN(c3cnc(Sc4ccnc(N)c4Cl)c(N)n3)CC2)C1N .
[A] 73.7

[Q] Now try CC1(C)CCC(CN2CCN(c3ccc(C(=O)NS(=O)(=O)c4ccc(NCC5CCOCC5)c([N+](=O)[O-])c4)c(Oc4cnc5[nH]ccc5c4)c3)CC2)=C(c2ccc(Cl)cc2)C1 + CC1OCC2(CCN(c3cnc(Sc4ccnc(N)c4Cl)c(N)n3)CC2)C1N .
[A] 83.8
